Items are presented alongside their recorded %Inh.
test system: RPS6KA4(Kin.Dom.2-C-terminal); settings: concentration: 1 μM, replicates: in singlicate; n = 1;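 further: KINOMEscan kinase panel screen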
Please give a number only; it is taken to be in %.

Q: Endpoint output: %Inh of Cc1c(Cn2c3ccccc3n3c(=O)cc(N4CCOCC4)nc23)cccc1C(F)(F)F . Value?
Result: 0

Q: Would you kindly repeat that for CC(=O)c1c(C)c2cnc(Nc3ccc(N4CCNCC4)cn3)nc2n(C2CCCC2)c1=O ?
Result: 0

Q: Would you kindly repeat that for CCn1c(-c2ccccc2)nc2cnccc21 ?
Result: 0

Q: Would you kindly repeat that for COc1ccc2cc(-c3nc(-c4ccccc4C(C)C)[nH]c3-c3ccncc3)ccc2c1 ?
Result: 0

Q: Would you kindly repeat that for COc1ccc(CSc2nnc(-c3ccc4ncsc4c3)o2)cc1C(F)(F)F ?
Result: 5

Where do these numbers come from? They come from paper PMC5540273.
